These data points were gathered from patent US9981972B2.

- TGT: LYPLA1 (Mus musculus, UniProt P97823)
- Construct: a complex proteome endogenously expressing LYPLA1/2 was incubated with test compound; from tissue; host or cells: mouse brain, membrane fraction
- Sequence (P97823 whole entry): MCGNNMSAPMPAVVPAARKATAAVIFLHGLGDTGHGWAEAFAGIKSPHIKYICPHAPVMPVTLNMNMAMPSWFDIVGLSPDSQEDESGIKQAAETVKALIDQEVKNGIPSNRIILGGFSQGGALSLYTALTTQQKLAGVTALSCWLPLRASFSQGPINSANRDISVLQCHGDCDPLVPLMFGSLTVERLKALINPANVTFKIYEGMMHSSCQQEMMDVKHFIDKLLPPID
- ASSAY SUMMARY: Gel-based competitive ABPP in vitro, mouse brain membrane proteome
- Type: biochemical
- TEST CONTEXT: 10 μM compound, 30 min, one replicate; read-out: LYPLA1 % INH 10 μM
READOUT TYPE: inhibition at 10 µM

Below: 10 molecules and their reported inhibition at 10 µM.
O=C(ON1C(=O)C2CN(C(=O)c3ccc(Br)cc3)CCN2C1=O)N1CCC(CCc2ccc(Cl)cc2)CC1 (stereo not shown) [Compound 7] : 95%
CC(C)(C)OC(=O)N1CCN2C(=O)N(OC(=O)N3CCC(C(=O)Nc4ccccc4)CC3)C(=O)C2C1 (stereo not shown) [Compound 19] : 10%
O=C(ON1C(=O)C2CN(C(=O)c3ccc(F)c([N+](=O)[O-])c3)CCN2C1=O)N1CCC(CCc2ccc(Cl)cc2)CC1 (stereo not shown) [Compound 9] : 100%
O=C(ON1C(=O)C2CN(C(=O)N3CCCCC3)CCN2C1=O)N1CCC(CCc2ccc(Cl)cc2)CC1 (stereo not shown) [Compound 2] : 100%
CN(C)c1ccc(C(=O)N2CCN3C(=O)N(OC(=O)N4CCC(CCc5ccc(Cl)cc5)CC4)C(=O)C3C2)cc1 (stereo not shown) [Compound 10] : 100%
O=C(ON1C(=O)C2CN(C(=O)N3CCOCC3)CCN2C1=O)N1CCC(CCc2ccc(Cl)cc2)CC1 (stereo not shown) [Compound 1] : 100%
CC(C)(C)OC(=O)N1CCN2C(=O)N(OC(=O)N3CCN(C(c4ccc(Cl)cc4)c4ccc(Cl)cc4)CC3)C(=O)C2C1 (stereo not shown) [Compound 18] : 50%
CC(C)(C)OC(=O)N1CCN2C(=O)N(OC(=O)N3CCCCC3)C(=O)C2C1 (stereo not shown) [Compound 14] : 0%
CC(C)(C)OC(=O)N1CCN2C(=O)N(OC(=O)N3CCN(CCc4ccccc4)CC3)C(=O)C2C1 (stereo not shown) [Compound 17] : 75%
CC(C)(C)CC(=O)N1CCN2C(=O)N(OC(=O)N3CCC(CCc4ccc(Cl)cc4)CC3)C(=O)C2C1 (stereo not shown) [Compound 4] : 100%

Now turn to the next molecule.
Input line: Respond only with inhibition at 10 µM recorded for COc1ccc(C(=O)N2CCN3C(=O)N(OC(=O)N4CCC(CCc5ccc(Cl)cc5)CC4)C(=O)C3C2)cc1 (stereo not shown) [Compound 11]
Output line: 100%

* * *

- TGT: LYPLA1 (Mus musculus, UniProt P97823)
- Construct: a complex proteome endogenously expressing LYPLA1/2 was incubated with test compound; from tissue; host or cells: mouse brain, membrane fraction
- ASSAY SUMMARY: Gel-based competitive ABPP in vitro, mouse brain membrane proteome
- Assay type: biochemical
- TEST CONTEXT: 10 μM, mouse brain (mem) proteome
# reported LYPLA1 in vitro enzyme activity, % @ 10 μM; entries follow
Give just the number in % @; leave the unit off.

Look over these answered cases.
COc1ccc(N2CCN(C(=O)ON3C(=O)[C@@H]4CN(CC5CCN(Cc6ccccc6)CC5)CCN4C3=O)CC2)cc1 : 50
O=C(ON1C(=O)[C@@H]2CN(Cc3ccc(Br)cc3)CCN2C1=O)N1CCC(CCc2ccc(Cl)cc2)CC1 : 50
C#CCOc1ccc(N2CCN(C(=O)ON3C(=O)[C@@H]4CN(Cc5ccc(Oc6ccccc6)cc5)CCN4C3=O)CC2)cc1 : 0
C#CCOc1ccc(N2CCN(C(=O)ON3C(=O)[C@H]4CN(CC5CCN(Cc6ccccc6)CC5)CCN4C3=O)CC2)cc1 : 0
O=C(ON1C(=O)[C@@H]2CN(C(=O)N3CCOCC3)CCN2C1=O)N1CCN(CCc2ccc(Cl)cc2)CC1 : 100

Okay, now this molecule:
Input line: Report its LYPLA1 in vitro enzyme activity, % @ 10 μM with LYPLA1 (Mus musculus, UniProt P97823) as the test system: `C#CCOc1ccc(N2CCN(C(=O)ON3C(=O)[C@@H]4CN(CC5CCN(Cc6ccccc6)CC5)CCN4C3=O)CC2)cc1`
Output line: 50

* * *

- TGT: ABHD6 (Mus musculus, UniProt Q8R2Y0)
- Construct: from tissue; host or cells: mouse brain, membrane fraction
- Sequence (Q8R2Y0 whole entry): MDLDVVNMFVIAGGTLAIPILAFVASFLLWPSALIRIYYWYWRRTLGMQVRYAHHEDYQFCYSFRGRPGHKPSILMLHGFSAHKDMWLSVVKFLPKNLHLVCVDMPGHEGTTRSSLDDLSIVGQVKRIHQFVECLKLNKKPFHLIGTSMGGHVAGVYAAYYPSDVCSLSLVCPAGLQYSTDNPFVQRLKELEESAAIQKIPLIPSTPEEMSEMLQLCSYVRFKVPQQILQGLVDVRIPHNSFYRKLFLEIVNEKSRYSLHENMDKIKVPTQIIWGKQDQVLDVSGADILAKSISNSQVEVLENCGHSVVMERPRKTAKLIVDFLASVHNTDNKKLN
- ASSAY SUMMARY: Gel-based competitive ABPP in vitro, mouse brain membrane proteome
- Assay type: biochemical
- TEST CONTEXT: mouse ABHD6, in vitro; read-out: mABHD6 in vitro potency (IC50)
- Protocol: Assay Overview: The purpose of this assay was to determine whether test compounds can inhibit LYPLA1 and LYPLA2 in a complex proteomic lysate and to assess anti-target inhibition using a competitive activity-based proteomic profiling (ABPP) assay. […] The reaction products were separated by SDS-PAGE and visualized in-gel using a flatbed fluorescence scanner. The percentage activity remaining was determined by measuring the integrated optical density of the bands. […]
READOUT TYPE: IC50 (nM)
Express it in nM; write the number only.

O=C(ON1C(=O)[C@@H]2CN(C(=O)N3CCOCC3)CCN2C1=O)N1CCC(CCc2ccc(Cl)cc2)CC1 : 2.2

Below: the item to evaluate.
Input line: Look up IC50 of `O=C(ON1C(=O)[C@H]2CN(C(=O)N3CCOCC3)CCN2C1=O)N1CCC(CCc2ccc(Cl)cc2)CC1` and report it.
Output line: 2.5

* * *

- TGT: ABHD4 (Homo sapiens)
- Sequence (Q8TB40 whole entry): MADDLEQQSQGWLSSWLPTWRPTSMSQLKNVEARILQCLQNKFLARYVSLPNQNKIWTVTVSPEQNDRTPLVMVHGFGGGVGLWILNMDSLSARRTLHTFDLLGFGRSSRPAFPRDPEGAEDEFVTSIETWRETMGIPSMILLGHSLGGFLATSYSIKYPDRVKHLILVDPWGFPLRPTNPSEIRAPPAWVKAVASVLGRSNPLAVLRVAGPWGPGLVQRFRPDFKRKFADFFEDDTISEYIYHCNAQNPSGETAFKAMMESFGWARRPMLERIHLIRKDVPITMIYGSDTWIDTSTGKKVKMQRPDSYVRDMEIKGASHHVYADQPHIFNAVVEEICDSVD
- ASSAY SUMMARY: Gel-based competitive ABPP, recombinant enzyme in transfected HEK293T cell lysates
- Format: biochemical
- Parameters: myc-his; expressed in transfected cells; host or cells: HEK293T, transient transfection, pcDNA3.1/myc-his; lysate used in vitro
- TEST CONTEXT: recombinant, combined HEK293T lysates, gel-based ABPP; read-out: ABHD4 IC50
READOUT TYPE: pIC50
Please treat pIC50 as minus the base-10 logarithm of the molar concentration.

Input line: Determine its reported pIC50: O=C(ON1C(=O)C2CN(Cc3ccc(Oc4ccccc4)cc3)CCN2C1=O)N1CCC(c2ccccc2)CC1 (stereo not shown) [Compound 38]
Output line: 7.52

* * *

- TGT: PPT1 (Homo sapiens)
- Sequence (P50897 28-306): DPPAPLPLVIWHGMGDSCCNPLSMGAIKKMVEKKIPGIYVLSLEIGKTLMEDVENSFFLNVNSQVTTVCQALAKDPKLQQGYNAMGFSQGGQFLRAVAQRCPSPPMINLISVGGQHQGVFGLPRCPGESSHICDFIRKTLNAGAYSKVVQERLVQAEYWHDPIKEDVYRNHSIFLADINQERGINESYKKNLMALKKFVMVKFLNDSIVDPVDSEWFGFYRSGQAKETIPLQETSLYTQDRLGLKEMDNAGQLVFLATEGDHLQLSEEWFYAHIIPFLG
- ASSAY SUMMARY: PPT1 substrate assay in vitro, hPPT1-transfected HEK293T cell lysates
- Type: biochemical
- Parameters: expressed in transfected cells; host or cells: HEK293T
- TEST CONTEXT: cell lysates, pH 5.0, MU-6S-Palm-βD-Glc substrate; 95% confidence intervals in parentheses; read-out: IC50 for inhibition of human PPT1, in vitro (substrate)
READOUT TYPE: IC50 (µM)
Supply the numeric figure in µM, leaving out any unit text.

Input line: Identify IC50 associated with the compound O=C(ON1C(=O)C2CN(C(=O)N3CCOCC3)CCN2C1=O)N1CCC(CCc2ccc(Cl)cc2)CC1 (centres unmarked)
Output line: 15

* * *

- TGT: human LYPLA2 (Homo sapiens, UniProt O95372)
- Construct: endogenous human LYPLA1/2 in a HeLa soluble proteome; endogenous in cells; host or cells: HeLa (soluble proteome in vitro; cultured cells in situ)
- Sequence (O95372 whole entry): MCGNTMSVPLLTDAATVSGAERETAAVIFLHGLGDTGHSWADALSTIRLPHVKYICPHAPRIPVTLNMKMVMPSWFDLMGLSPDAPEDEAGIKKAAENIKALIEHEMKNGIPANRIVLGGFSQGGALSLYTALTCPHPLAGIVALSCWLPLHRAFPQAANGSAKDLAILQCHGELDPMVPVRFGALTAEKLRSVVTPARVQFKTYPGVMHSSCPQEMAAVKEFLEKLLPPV
- ASSAY SUMMARY: IC50 by gel-based competitive ABPP in vitro, soluble HeLa cell proteome
- Type: biochemical
- TEST CONTEXT: HeLa cell lysates, FP-Rh; read-out: human LYPLA2 IC50 in vitro
READOUT TYPE: IC50
Your reply should be a number followed by the unit it is expressed in.

Input line: Respond only with IC50 recorded for O=C(ON1C(=O)C2CN(C(=O)N3CCOCC3)CCN2C1=O)N1CCC(CCc2ccc(Cl)cc2)CC1 (stereo not shown)
Output line: 0.245 µM

* * *

- TGT: FAAH (Mus musculus, UniProt O08914)
- Construct: from tissue; host or cells: mouse brain, membrane fraction
- Sequence (O08914 whole entry): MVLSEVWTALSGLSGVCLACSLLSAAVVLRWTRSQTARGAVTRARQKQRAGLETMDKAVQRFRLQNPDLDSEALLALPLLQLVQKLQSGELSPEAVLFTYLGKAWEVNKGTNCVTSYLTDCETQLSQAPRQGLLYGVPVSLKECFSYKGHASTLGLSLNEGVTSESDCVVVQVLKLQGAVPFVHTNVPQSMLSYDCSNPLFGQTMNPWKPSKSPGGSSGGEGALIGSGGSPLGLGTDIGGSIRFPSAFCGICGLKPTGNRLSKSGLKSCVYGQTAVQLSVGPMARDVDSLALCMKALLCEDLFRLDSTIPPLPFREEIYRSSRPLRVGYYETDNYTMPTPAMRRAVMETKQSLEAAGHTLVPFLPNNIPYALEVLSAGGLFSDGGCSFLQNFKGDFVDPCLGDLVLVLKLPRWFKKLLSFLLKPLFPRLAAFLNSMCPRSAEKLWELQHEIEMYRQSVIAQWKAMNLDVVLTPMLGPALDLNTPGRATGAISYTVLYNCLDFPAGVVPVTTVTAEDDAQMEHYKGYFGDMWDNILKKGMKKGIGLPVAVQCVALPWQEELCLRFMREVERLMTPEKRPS
- ASSAY SUMMARY: Gel-based competitive ABPP in vitro, mouse brain membrane proteome
- Format: biochemical
- TEST CONTEXT: 10 μM, mouse brain (mem) proteome
Reported FAAH in vitro enzyme activity, % @ 10 μM values for a set of compounds
Report only the number, with the unit % @ understood.

// worked examples, FAAH in vitro enzyme activity, % @ 10 μM included
COc1ccc(N2CCN(C(=O)ON3C(=O)C4CN(CC5CCN(Cc6ccccc6)CC5)CCN4C3=O)CC2)cc1 (stereo not shown) : 0
C#CCOc1ccc(N2CCN(C(=O)ON3C(=O)[C@H]4CN(CC5CCN(Cc6ccccc6)CC5)CCN4C3=O)CC2)cc1 : 0
O=C(ON1C(=O)[C@@H]2CN(C(=O)N3CCOCC3)CCN2C1=O)N1CCN(CCc2ccc(Cl)cc2)CC1 : 100

Input line: Output measured FAAH in vitro enzyme activity, % @ 10 μM for this item: `C#CCOc1ccc(N2CCN(C(=O)ON3C(=O)[C@H]4CN(Cc5ccc(Oc6ccccc6)cc5)CCN4C3=O)CC2)cc1`
Output line: 0

* * *

- TGT: mABHD3 (Mus musculus, UniProt Q91ZH7)
- Construct: expressed in transfected cells; host or cells: HEK293T, transient transfection, pCMV-Sport6; lysate used in vitro
- Sequence (Q91ZH7 1-411): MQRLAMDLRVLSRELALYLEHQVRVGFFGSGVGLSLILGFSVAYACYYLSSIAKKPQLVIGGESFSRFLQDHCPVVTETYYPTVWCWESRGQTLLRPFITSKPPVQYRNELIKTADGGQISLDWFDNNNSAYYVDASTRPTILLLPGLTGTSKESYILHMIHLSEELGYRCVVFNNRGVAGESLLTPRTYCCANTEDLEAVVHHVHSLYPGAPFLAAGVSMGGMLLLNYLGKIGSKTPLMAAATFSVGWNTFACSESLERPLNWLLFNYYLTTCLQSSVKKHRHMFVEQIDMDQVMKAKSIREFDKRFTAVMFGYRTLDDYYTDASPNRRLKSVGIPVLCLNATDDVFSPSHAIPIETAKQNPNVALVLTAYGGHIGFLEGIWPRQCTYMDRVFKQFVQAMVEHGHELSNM
- ASSAY SUMMARY: Gel-based competitive ABPP, recombinant enzyme in transfected HEK293T cell lysates
- Assay type: biochemical
- TEST CONTEXT: combined HEK293T lysates, gel-based ABPP, read-out: ABHD3 IC50
READOUT TYPE: IC50 (nM)
Value expressed in nM; do not type the unit.

Input line: Look up and report measured IC50 for this entry: O=C(ON1C(=O)C2CN(Cc3ccc(Oc4ccccc4)cc3)CCN2C1=O)N1CCC(c2ccccc2)CC1 (stereo not shown) [Compound 38]
Output line: 130
